Measured Activity values are reported for all entries that follow.
# Tested on: Rattus norvegicus
# Assay Method Text: Antihypertensive activity in spontaneously hypertensive Rattus norvegicus (rat) assessed as reduction of systolic blood pressure at 2 mg/kg, ig after 1 hr
# Assay type: functional, Artery
# Condition Parameters: route intragastric
The reply should be a number in mmHg, with the unit left off.

The examples below pair each entry with its known result.
Just so you know, measured Activity for CCCCCOC(=O)C1=C(C)NC(C)=C(C(=O)OC)C1c1cccc([N+](=O)[O-])c1 (configuration not stated) came out at 44

Just so you know, measured Activity for CCCCCCCCCCOC(=O)C1=C(C)NC(C)=C(C(=O)OC)C1c1cccc([N+](=O)[O-])c1 (configuration not stated) came out at 31

Just so you know, measured Activity for CCCOC(=O)C1=C(C)NC(C)=C(C(=O)OC)C1c1cccc([N+](=O)[O-])c1 (configuration not stated) came out at 43

Just so you know, measured Activity for CCCCCCCCOC(=O)C1=C(C)NC(C)=C(C(=O)OC)C1c1cccc([N+](=O)[O-])c1 (configuration not stated) came out at 38

Just so you know, measured Activity for `CCCCCCCOC(=O)C1=C(C)NC(C)=C(C(=O)OC)[C@@H]1c1cccc([N+](=O)[O-])c1` came out at 93

Just so you know, measured Activity for CCCCCCCCCCCCOC(=O)C1=C(C)NC(C)=C(C(=O)OC)C1c1cccc([N+](=O)[O-])c1 (configuration not stated) came out at 17

---
Just so you know, measured Activity for CCCCCCCOC(=O)C1=C(C)NC(C)=C(C(=O)OC)C1c1cccc([N+](=O)[O-])c1 (racemic) came out at 52
